// reported shrunken log2 fold change per item
# Tested on: Escherichia coli TOP10
# assay procedure: shrunken log2 fold change of peptide-encoding DNA abundance (4.5 h post-induction vs induction); higher = less antimicrobial activity (less host growth inhibition)
# reported conditions: time post-induction: 4.5 h; library: site-saturation at positions 5, 18, 19, 20
Give your answer as a number; write no unit.

Study these solved cases before continuing.
>  <chain sequence>
RRIRLRPPRLPRPRPRPHPPPRP

>  <target>
Escherichia coli TOP10

>  <shrunken log2 fold change>
1

$$$$
>  <chain sequence>
RRIRRRPPRLPRPRPRPNNAPRP

>  <target>
Escherichia coli TOP10

>  <shrunken log2 fold change>
-0.18

$$$$
>  <chain sequence>
RRIRWRPPRLPRPRPRPSAHPRP

>  <target>
Escherichia coli TOP10

>  <shrunken log2 fold change>
0.062

$$$$

Exercise: // returns reported shrunken log2 fold change for input RRIRKRPPRLPRPRPRPNHCPRP
Key: 0.0144

Exercise: May I ask what shrunken log2 fold change has been recorded for RRIRFRPPRLPRPRPRPGREPRP ?
Key: 0.0157

Exercise: # lookup: shrunken log2 fold change of RRIRFRPPRLPRPRPRPQLAPRP
Key: 0.0569

Exercise: Reported shrunken log2 fold change for RRIRIRPPRLPRPRPRPCSRPRP : what is it?
Key: -0.139

Exercise: Give the measured shrunken log2 fold change of RRIRDRPPRLPRPRPRPCSMPRP .
Key: -0.0575

----------
# Test system: Escherichia coli TOP10
# assay procedure: shrunken log2 fold change of peptide-encoding DNA abundance (4.5 h post-induction vs induction); higher = less antimicrobial activity (less host growth inhibition)
# reported conditions: time post-induction: 4.5 h; library: site-saturation at positions 5, 18, 19, 20
Decide by shrunken log2 fold change: equal to or exceeding 0.007 means True, less means False.

Past entries and their recorded results:
>  <chain sequence>
RRIRYRPPRLPRPRPRPMVMPRP

>  <label>
False

$$$$
>  <chain sequence>
RRIRKRPPRLPRPRPRPCYYPRP

>  <label>
False

$$$$
>  <chain sequence>
RRIRPRPPRLPRPRPRPQDMPRP

>  <label>
False

$$$$
>  <chain sequence>
RRIRNRPPRLPRPRPRPVAVPRP

>  <label>
False

$$$$
>  <chain sequence>
RRIRARPPRLPRPRPRPVPRPRP

>  <label>
True

$$$$

Exercise: Is the recorded value of shrunken log2 fold change equal to or greater than 0.007 for this sequence? RRIRHRPPRLPRPRPRPVQNPRP
Key: True

Exercise: Is shrunken log2 fold change at least 0.007? Consider RRIRKRPPRLPRPRPRPTMCPRP
Key: False

Exercise: Threshold query (shrunken log2 fold change >= 0.007) on RRIRLRPPRLPRPRPRPHFDPRP
Key: False

Exercise: Has RRIRIRPPRLPRPRPRPCIFPRP a recorded shrunken log2 fold change greater than or equal to 0.007?
Key: False

Exercise: In plain terms: is recorded shrunken log2 fold change at least 0.007 for RRIRDRPPRLPRPRPRPMIAPRP ?
Key: True

Exercise: Hi team, for RRIRARPPRLPRPRPRPCGQPRP , is the recorded shrunken log2 fold change at or above 0.007?
Key: True

Exercise: shrunken log2 fold change >= 0.007 for RRIRFRPPRLPRPRPRPIWTPRP ?
Key: False

Exercise: Hi team, for RRIRARPPRLPRPRPRPSDRPRP , is the recorded shrunken log2 fold change at or above 0.007?
Key: False

Exercise: // inclusive: shrunken log2 fold change at least 0.007? input: RRIRNRPPRLPRPRPRPYKAPRP
Key: False

Exercise: Does the sequence RRIRDRPPRLPRPRPRPRSEPRP have recorded shrunken log2 fold change that is 0.007 or more?
Key: False

Exercise: Reported shrunken log2 fold change at or above 0.007? RRIRYRPPRLPRPRPRPMFSPRP
Key: False

Exercise: Answer whether shrunken log2 fold change of RRIRKRPPRLPRPRPRPWLVPRP is greater than or equal to 0.007.
Key: True

Exercise: Could you tell me if the measured shrunken log2 fold change of RRIRSRPPRLPRPRPRPFGYPRP reaches 0.007 or more?
Key: False

Exercise: Decide: is the reported value of shrunken log2 fold change for RRIRYRPPRLPRPRPRPDNMPRP equal to or greater than 0.007?
Key: False

Exercise: Has RRIRIRPPRLPRPRPRPWGMPRP a recorded shrunken log2 fold change greater than or equal to 0.007?
Key: True

Exercise: # check: shrunken log2 fold change of RRIRGRPPRLPRPRPRPQWYPRP is greater than or equal to 0.007
Key: True

Exercise: Entry RRIRMRPPRLPRPRPRPAICPRP : is its shrunken log2 fold change no less than 0.007?
Key: True

Exercise: Answer whether shrunken log2 fold change of RRIRARPPRLPRPRPRPAHWPRP is greater than or equal to 0.007.
Key: True

Exercise: Please indicate if the recorded shrunken log2 fold change for RRIRHRPPRLPRPRPRPELKPRP meets or exceeds 0.007.
Key: True

Exercise: Dear colleague, could you confirm whether RRIRRRPPRLPRPRPRPCDSPRP has shrunken log2 fold change at or above 0.007?
Key: False

Exercise: Reported shrunken log2 fold change reaches at least 0.007 for RRIRSRPPRLPRPRPRPAVMPRP ?
Key: True

Exercise: Can RRIRKRPPRLPRPRPRPTCGPRP be said to have shrunken log2 fold change at or above 0.007?
Key: True

Exercise: In plain terms: is recorded shrunken log2 fold change at least 0.007 for RRIRQRPPRLPRPRPRPWHLPRP ?
Key: False

Exercise: Is shrunken log2 fold change at least 0.007? Consider RRIRTRPPRLPRPRPRPAITPRP
Key: False

----------
# System: Escherichia coli TOP10
# assay procedure: shrunken log2 fold change of peptide-encoding DNA abundance (4.5 h post-induction vs induction); higher = less antimicrobial activity (less host growth inhibition)
# reported conditions: time post-induction: 4.5 h; library: site-saturation at positions 5, 18, 19, 20
Could you label it 1 (yes) if measured shrunken log2 fold change is -0.07 or higher, and 0 (no) otherwise?

Past entries and their recorded results:
>  <chain sequence>
RRIRARPPRLPRPRPRPEHEPRP

>  <label>
1 (yes)

$$$$
>  <chain sequence>
RRIRARPPRLPRPRPRPKRLPRP

>  <label>
1 (yes)

$$$$
>  <chain sequence>
RRIRCRPPRLPRPRPRPLAMPRP

>  <label>
1 (yes)

$$$$

Exercise: State whether the measured shrunken log2 fold change reaches -0.07, counting equality as reaching it, for RRIRGRPPRLPRPRPRPFTQPRP
Key: 0 (no)

Exercise: State whether the measured shrunken log2 fold change reaches -0.07, counting equality as reaching it, for RRIRMRPPRLPRPRPRPHCIPRP
Key: 1 (yes)

Exercise: Check if shrunken log2 fold change >= -0.07 (inclusive). Item: RRIRVRPPRLPRPRPRPECMPRP
Key: 1 (yes)

Exercise: Form field: shrunken log2 fold change at least -0.07? Entry: RRIRTRPPRLPRPRPRPKVGPRP
Key: 1 (yes)

Exercise: Quick check, shrunken log2 fold change >= -0.07? RRIRQRPPRLPRPRPRPMNVPRP
Key: 1 (yes)

----------
# Tested on: Escherichia coli TOP10
# assay procedure: shrunken log2 fold change of peptide-encoding DNA abundance (4.5 h post-induction vs induction); higher = less antimicrobial activity (less host growth inhibition)
# reported conditions: time post-induction: 4.5 h; library: site-saturation at positions 5, 18, 19, 20
The following sequences are listed with their measured shrunken log2 fold change values.
Write the value as a bare number.

>  <chain sequence>
RRIRTRPPRLPRPRPRPFGSPRP

>  <target>
Escherichia coli TOP10

>  <shrunken log2 fold change>
0.0169

$$$$
>  <chain sequence>
RRIRPRPPRLPRPRPRPWEYPRP

>  <target>
Escherichia coli TOP10

>  <shrunken log2 fold change>
-0.05

$$$$
>  <chain sequence>
RRIRTRPPRLPRPRPRPYGSPRP

>  <target>
Escherichia coli TOP10

>  <shrunken log2 fold change>
-0.154

$$$$
>  <chain sequence>
RRIRRRPPRLPRPRPRPPQTPRP

>  <target>
Escherichia coli TOP10

>  <shrunken log2 fold change>
0.828

$$$$
>  <chain sequence>
RRIRCRPPRLPRPRPRPACEPRP

>  <target>
Escherichia coli TOP10

>  <shrunken log2 fold change>
0.112

$$$$
>  <chain sequence>
RRIRWRPPRLPRPRPRPFPVPRP

>  <target>
Escherichia coli TOP10

>  <shrunken log2 fold change>
-0.0948

$$$$
>  <chain sequence>
RRIRMRPPRLPRPRPRPENRPRP

>  <target>
Escherichia coli TOP10;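 further: peptides expressed intracellularly from a pBAD plasmid library in pooled LB shake-flask culture, induced with 0.3% L-arabinose, DNA abundance read by NGS, three biological replicates, DESeq2 with apeglm shrinkage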

>  <shrunken log2 fold change>
0.247

$$$$

Exercise: Look at this sequence and give its reported shrunken log2 fold change. RRIRSRPPRLPRPRPRPIKGPRP
Key: -0.00753
